The reported measurements were obtained from PubChem BioAssay (NCI).

# Test system: HCT-116 colon
# PROCEDURE_TEXT: NCI-60 one-dose screen, 48 h
# CONDITION_NOTES: 10 µM unless noted
This is part of a sample that, as a whole, favours compounds with a hit. Of some 83,000 tested, about 20% had one in any assay. Active and inactive are the calls of the source. The calls were made as follows: active = growth percent below 10; inactive = the rest.
Your answer must be one of the following: active, inactive

For orientation, consider the following solved cases.
COc1ccc2c(c1)CCc1[nH]nc(-c3cc(OC)c(OC)c(OC)c3)c1-2	active
CCCCNC(=O)c1cc([N+](=O)[O-])cc(C2CCCCC2)c1O	inactive
COc1ccccc1C(=O)Nc1cccc(NC(=O)c2ccoc2C)c1	inactive

Q: Hi, sorry to bother you, what did the test record for Cc1ccccc1Nc1cc(O)c2c(=O)cc(-c3ccccc3)oc2c1 ?
Result: inactive

Q: Request: CC(C)=CCNc1ncnc2c1ncn2C1OC(CO)C(O)C1O (stereo not drawn)
Result: active

Q: Request: C#CC#CC#CC#CC#CC#CC#CC#CC[C@@H]1OC[C@@H](COC(=O)O[C@@H](C(=O)O[C@H]2C[C@@]3(O)[C@@H](OC(=O)c4ccccc4)[C@@H]4[C@]5(OC(C)=O)CO[C@@H]5C[C@H](O)[C@@]4(C)C(=O)[C@H](OC(C)=O)C(=C2C)C3(C)C)[C@@H](NC(=O)c2ccccc2)c2ccccc2)O1
Result: active

Q: Request: O=C(/C=C/c1ccccc1)c1ccc(Nc2nc(Nc3ccc(F)cc3)nc(Nc3ccc(Cl)cc3)n2)cc1
Result: inactive

Q: Request: CCOC(=O)C1=C(C)/C(=C\c2[nH]c(C)c(C(=O)OCC)c2C)N=C1C
Result: inactive

* * *

# System: SN12C renal
# PROCEDURE_TEXT: NCI-60 one-dose screen, 48 h (100 = growth as untreated, 0 = no growth, -100 = all killed)
# CONDITION_NOTES: 10 µM unless noted
# Experimental: Growth inhibition of the SN12C human tumor cell line is measured as a screen for anti-cancer activity. Cells are grown in 96 well plates and exposed to the test compound for 48 hours. Compounds are tested at a single concentration, which is 10^-5 M for most compounds. The reported endpoint is percent growth (GI% or GIPRCNT), where numbers from 0 - 100% represent growth inhibition, and numbers from -100% - 0 represent cell death. For example, a value of 40 represents 60% growth inhibition. […]
This is part of a sample that, as a whole, favours compounds with a hit. Of some 83,000 tested, about 20% had one in any assay. Active and inactive are the calls of the source. How the source made its calls: active means growth percent below 10; inactive means the rest.
Listing of entries alongside the reported growth.

Cc1ccc2nc(NC(=O)CSc3nc(-c4ccccc4)c(C#N)c4nnnn34)sc2c1	111% (inactive)
COc1ccc2c(c1)CCc1[nH]nc(-c3cc(OC)c(OC)c(OC)c3)c1-2	31.9% (inactive)
CC1CCN(C(=O)CCCl)c2ccccc21 (configuration not stated)	99.7% (inactive)
Cn1cc(-c2nn3cc(-c4cccs4)nc3s2)c2cc(F)ccc21	36% (inactive)

Q: Form field - read-out: growth; system: SN12C renal; submitted item: CCOC(=O)c1c(C)nc2ccccc2c1/C=C/c1ccccc1
Result: 88.3% (inactive)

Q: Request: CNC1=C([N+](=O)[O-])C(c2ccc(OC)cc2)C(C#N)=C(c2cccs2)O1 (configuration not stated)
Result: 105% (inactive)

* * *

# Tested on: NCI-H23 lung
# PROCEDURE_TEXT: NCI-60 one-dose screen, 48 h (100 = growth as untreated, 0 = no growth, -100 = all killed)
# CONDITION_NOTES: 10 µM unless noted
# Description: Growth inhibition of the NCI-H23 human Non-Small Cell Lung tumor cell line is measured as a screen for anti-cancer activity. Cells are grown in 96 well plates and exposed to the test compound for 48 hours. Compounds are tested at a single concentration, which is 10^-5 M for most compounds. The reported endpoint is percent growth (GI% or GIPRCNT), where numbers from 0 - 100% represent growth inhibition, and numbers from -100% - 0 represent cell death. […]
About 83,000 compounds went through this panel and 20% of them were active in at least one assay; those are over-represented in the sample as a whole.
Just so you know, the groups by growth go like this: low value (below 30%), medium value (30% to below 90%), high value (90% or more)

C/C=C(\C)C(=O)N[C@H]1C(O)C[C@]2(C)C3CC[C@@]4(C)C(CC[C@@H]4C(C)N(C)C)C3CCC2C1O (stereo partly drawn)	medium value
O=C(Nc1ccccc1[N+](=O)[O-])c1ccc(Cl)c(Cl)c1	medium value
O=C(NNC(=O)c1nc2cc(F)ccc2n2cccc12)c1cnccn1	medium value
COc1cc(/C=C2\CN(S(=O)(=O)c3ccccc3)C/C(=C\c3cc(CN4CCCCC4)c(O)c(OC)c3)C2=O)cc(CN2CCCCC2)c1O	low value
CCCCNC(=O)c1cc([N+](=O)[O-])cc(C2CCCCC2)c1O	low value

Q: Class label required: CCCCCCCCCCCCCOC(=O)c1c(C)[nH]c(/C=C2\N=C(c3ccc[nH]3)C=C2OC)c1C
Result: medium value

Q: Request: C=CC(=O)Nc1ccc(Nc2nccc(-c3ccc(N4CCCC4)c(C#N)c3)n2)cc1
Result: medium value

Q: Request: CC(=O)O[C@H]1C[C@@H]2C(C)(C)C(=O)CC[C@@]2(C)c2ccc(C(C)C)cc21
Result: high value

Q: Request: C=C1C(=O)O[C@H]2[C@H]1CC/C(COC(=O)c1cc3cc(Cl)ccc3[nH]1)=C\CC[C@@]1(C)O[C@@H]21
Result: low value

Q: Request: CC1=C(C(=O)Nc2nc(-c3ccc(Cl)cc3)cs2)[C@H](c2ccc(O)cc2)NC(=O)N1
Result: high value

Q: Request: N#Cc1c(-c2ccccc2)nc(SCc2nnc(-c3ccc(Cl)cc3)o2)[nH]c1=O
Result: high value

Q: Request: CCN1CCN(CC(=O)Nc2ccc(-c3cn4c(n3)sc3cc(Oc5ccnc(C(=O)NC)c5)ccc34)cc2)CC1
Result: high value

Q: Request: CCOC(=O)c1c(C)nc2c(c1N)CC(=O)N2Cc1ccc(OC)cc1
Result: medium value

Q: Request: CNC(=O)c1cc(Oc2cccc3nc(NC(=O)Nc4cc(C(F)(F)F)ccc4Cl)ccc23)ccn1
Result: medium value

* * *

# Test system: SF-268 CNS
# PROCEDURE_TEXT: NCI-60 one-dose screen, 48 h (100 = growth as untreated, 0 = no growth, -100 = all killed)
# CONDITION_NOTES: 10 µM unless noted
About 83,000 compounds went through this panel and 20% of them were active in at least one assay; those are over-represented in the sample as a whole.
READOUT_NAME: growth (%)
API: value field is a number in %; no unit string.

Cc1ccc(C(=O)c2ccc(CC(=O)N=Nc3c(O)[nH]c4ccc(Br)cc34)n2C)cc1	87.7

Q: Bench note: what growth did C=C(C)[C@@H]1CCC[C@]2(C(=O)O)CC[C@]3(C)[C@@H](CC[C@@H]4[C@@]5(C)C/C(=C/c6ccncc6)C(=O)C(C)(C)[C@@H]5CC[C@]43C)[C@@H]12 show?
Result: 52.1

Q: Request: C=C1CC[C@@H]2[C@](C)(COC(C)=O)[C@H](OC(C)=O)CC[C@@]2(C)[C@@H]1CC(Nc1ccc(S(=O)(=O)NC(C)=O)cc1)C1=CCOC1=O (some centres not stated)
Result: 6.72

Q: Request: N#C/C(=C\c1ccc(-c2cccc(C(F)(F)F)c2)o1)c1ccccc1
Result: 107

* * *

# Test system: M14 melanoma
# PROCEDURE_TEXT: NCI-60 one-dose screen, 48 h
# CONDITION_NOTES: 10 µM unless noted
Compounds without any hit were thinned out: in the full panel of roughly 83,000, 20% have a hit. Active and inactive are the calls of the source. How the source made its calls: active means growth percent below 10; inactive means the rest.
Your answer must be one of the following: active, inactive

CCCCCCCCCCCCCCCCCC1=NC(C)(C)CN1CC(C)O (stereo not drawn)	inactive
COc1cc(/C=C2\CN(S(=O)(=O)c3ccccc3)C/C(=C\c3cc(CN4CCCCC4)c(O)c(OC)c3)C2=O)cc(CN2CCCCC2)c1O	active
COc1cccc(Nc2ncnc3cc(NC(=O)CCl)ccc23)c1	active
COc1ccc(CNc2c3ccccc3nc3ccccc23)c(OC)c1	inactive
COc1cc(-c2nc3c(ncc4ccc(=O)n(-c5ccccc5)c43)s2)cc(OC)c1OC	inactive

Turning now to a further molecule:
Q: Hi, sorry to bother you, what did the test record for c1nc2ccc(-c3cc4ccc5[nH]ncc5c4c4c3CCCC4)cc2[nH]1 ?
Result: active

* * *

# Test system: EKVX NSCLC
# PROCEDURE_TEXT: NCI-60 one-dose screen, 48 h (100 = growth as untreated, 0 = no growth, -100 = all killed)
# CONDITION_NOTES: 10 µM unless noted
This is part of a sample that, as a whole, favours compounds with a hit. Of some 83,000 tested, about 20% had one in any assay.
READOUT_NAME: growth (%)
API: value field is a number in %; no unit string.

COc1cnc2c(c1)C(=O)c1c-2n(CCCCl)c(=O)c2ccncc12	79.1
Fc1cccc(-c2ccc3c(c2)C2(CCNCC2)CN3)c1	96.6
CN1CCN(Cc2ccc(NC(=O)c3cncc(C#Cc4cnc(N)c5ncccc45)c3)cc2C(F)(F)F)CC1	33.3
COc1ccc(/C=C/C(=O)c2cc(OC)c(OC)c(OC)c2)cc1OCC(=O)Nc1nc2ccc(OC(F)(F)F)cc2s1	62.1
COC(=O)c1ccc(NC(=O)Nc2ccc(C(=O)OC)cc2)cc1	118

Q: Form field - read-out: growth; system: EKVX NSCLC; submitted item: COc1ccc2c(c1)c(/C(O)=C1\COC(=O)C1=O)cn2Cc1ccc(F)cc1
Result: 106

Q: Request: C#CCNC(=O)[C@]1(C)CCC[C@@]2(C)[C@H]1CC=C1C=C(C(C)C)CC[C@@H]12
Result: 94.6

Q: Request: CCOC(=O)C#Cc1c(C(=O)OCC)nnn1Cc1ccc(C(F)(F)F)cc1
Result: 93.6

Q: Request: CCN(CC)CCCN1C(=O)c2c(c(C)c3c(oc4ccc(OC)cc43)c2C)C1=O
Result: 105

Q: Request: CC1=C2[C@@H](CC1)[C@]1(C)O[C@@](C3CCCCC3)(C[C@H]1OC(=O)CO)[C@H]2OC(=O)/C=C/c1ccccc1
Result: 83.3
